test system: UACC-62 melanoma; test: NCI tumour cell line growth inhibition, 48 h
QUANTITY KIND: GI50

Examples with answers:
CCN1Cc2c(ccc(F)c2C#N)O[C@@H](C)CNC(=O)c2c(N)nn3ccc1nc23    632 nM
Oc1[nH]c2c(Br)cccc2c1C1=Nc2ccccc2/C1=N/OCCN1CCCC1    973 nM
COc1cc(/C=C/C(=O)c2c(C)nc3ccccc3c2/C=C/c2ccc(C)cc2)cc(OC)c1OC    1600 nM

Now consider a different compound.
# get_value(readout='GI50', item= CCCCCCCCCCCCOC1C(C(COC2OC(C3COC(C)(C)O3)C3OC(C)(C)OC23)NC(=O)NS(=O)(=O)c2ccccc2)OC2OC(C)(C)OC21 (centres undefined) )
3270 nM

* * *

Measured TGI values are reported for all entries that follow.
system: SK-MEL-5 melanoma; test: NCI tumour cell line growth inhibition, 48 h

Examples with answers:
N=[N+]=CC(=O)CCC(NC(=O)C(CCC(=O)C=[N+]=N)NC(=O)CCC(N)C(=O)O)C(=O)O (stereo not drawn)    > 100 µM
COc1ccccc1C1c2cc3c(cc2OC(O)(CO)C1C(=O)O)OCO3 (stereo not drawn) (tested in a mixture with another compound)    > 100 µM

Observed TGI on SK-MEL-5 melanoma for `CSc1sc(=S)sc1C(=O)N(C)c1ccccc1` , please.
> 100 µM

* * *

Measured TGI values are reported for all entries that follow.
tested on: BT-549 breast; assay: NCI tumour cell line growth inhibition, 48 h

Cc1ccc2nc(-c3ccccc3)c(N=O)n2c1    > 100 µM
Cc1ccc(N=Nc2ccc(N)cc2C)c(S(N)(=O)=O)c1    > 100 µM
O=C(O)c1cc(-c2ccncc2)nc2ccccc12    > 100 µM

Now consider a different compound.
# get_value(readout='TGI', item= `COc1ccc(C(=O)/C=C/c2ccc3c(c2)OCO3)c(OCc2ccccc2)c1` )
> 100 µM

* * *

Measured GI50 values are reported for all entries that follow.
tested on: NCI-H522 lung; assay: NCI tumour cell line growth inhibition, 48 h

Examples with answers:
CC(NCCC(=O)N(CCC(=O)N(CCC(=O)N(CCC(=O)N(CCC(=O)N(CCC(=O)N(CCC(=O)N(CCC(=O)N(CCC(=O)N(CCC(=O)O)[C@H](C)c1ccccc1)[C@H](C)c1ccccc1)[C@H](C)c1ccccc1)[C@H](C)c1ccccc1)[C@H](C)c1ccccc1)[C@H](C)c1ccccc1)[C@H](C)c1ccccc1)[C@H](C)c1ccccc1)[C@H](C)c1ccccc1)c1ccccc1 (stereo partly specified)    2120 nM
CC(C)COCC(CN(Cc1ccccc1)c1ccccc1)N1CCCC1 (stereo unspecified)    1610 nM
N#CC1=C(N)Oc2c(sc3c(Br)cccc23)C1c1ccc(Br)cc1 (stereo unspecified)    88 nM
CN(C)CC1C(=O)O[C@H]2[C@H]1CC/C(COC(=O)c1cc3ccccc3[nH]1)=C\CC[C@@]1(C)O[C@@H]21 (stereo partly specified)    1320 nM
COc1cc(/C=N/NC(=O)c2cnn3c2NC(c2ccccc2)C3)ccc1Oc1ccccc1 (stereo unspecified)    366 nM

Now consider a different molecule.
# get_value(readout='GI50', item= `COc1cc(-n2cc(-c3ccc(Cl)cc3)nc2SCc2cccc(C#N)c2)cc(OC)c1OC` )
47000 nM
